Where do the numbers come from? From the nanobody polyreactivity screen of Harvey et al. (2022).

Assay: yeast display, Sf9 membrane polyspecificity reagent, FACS + sequencing; frameworks hold sequencing errors
value kind: polyreactivity (PSR sort gate)

Please review the following examples before continuing.
sequence: QVQHVESGGGIVQAGGSLRLSCAASGITFDEYAMGWYRQAPGKEWELVATITWSGGSTYYADSVKGRFTISRVNAKNTVDLKMNSLKPEDSAVYYCAARDSGRYDDFGYWGQGTQVTVSS
observed measurement: low polyreactivity
--
sequence: QVQLVESGVGLVQAGGSLRLSCAASGLIFASNSMGSYRQAPGKEREFVAAITSSGGSTYYADSVKGRFPISRDNAKNTVYLQMNSLKPEDTAVYYCAADLYGAWWYTYGRYYYWGQGTQVTVSS
observed measurement: low polyreactivity
--
sequence: QVQLEESGGGLVQAGGSLRLICAAYGIIFYIYTMGWYRQEPVKERELVAAINPGGSRYYADSVKGRFTISRDNAKNTVYLQMNSLKPEDTAVYYCNKLSYGRSGYWGQGTEVTVSS
observed measurement: high polyreactivity
--
sequence: QVQLVESGGGLVQAGGILRLSCAASGRTYGGYAMGWYRQAPGKERELVASITSTGGTHYSDSVKGRFTISRDNAKNTVYLQMNSLKPEDTAVYYFAAGYYYWKYDYWGQGTQVTVSS
observed measurement: high polyreactivity
--
sequence: QVQLVESGGGLVQAGGSLRLSCAASGSTFSYNTMGWYRQAPGKERELVATISSSSGSTTYADSVKGRFTISRDIAKNTVYLQINSLKPEDTAVYYCNVDDPFYSGVVEFDYWGQGTQVTVSS
observed measurement: low polyreactivity

## Task Which polyreactivity (PSR sort gate) reading was recorded for the sequence QVQLVESGGGLVQAGGSFRLSCAASGGTFDTYVMGWYRQAPGKERELVAVITRGASTYYADSVKGRFTISRDNAKNTVYLQMNSLKPEDTAVYYCAAAVYSPDYYRFWYSFDYWGQGTQVTVTS ?
## Result low polyreactivity
